In this section we review reported pKd values for a set of binders.
- target: T1, human IL-23 (human, UniProt P29460 23-328; Q9NPF7 20-189)
- T1 construct: Recombinant (Ebioscience); HIS-tagged in flow cytometry, biotinylated in some assays; also called hIL-23; rhIL-23
- T1 sequence 1: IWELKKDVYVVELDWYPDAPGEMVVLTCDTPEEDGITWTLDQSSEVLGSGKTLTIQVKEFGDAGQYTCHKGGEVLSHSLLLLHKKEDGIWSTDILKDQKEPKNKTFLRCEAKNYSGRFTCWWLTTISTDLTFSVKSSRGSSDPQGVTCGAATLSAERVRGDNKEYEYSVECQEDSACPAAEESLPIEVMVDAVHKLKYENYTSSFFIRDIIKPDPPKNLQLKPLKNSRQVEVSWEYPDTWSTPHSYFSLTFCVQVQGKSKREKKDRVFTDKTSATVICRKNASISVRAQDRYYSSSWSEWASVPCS
- T1 sequence 2: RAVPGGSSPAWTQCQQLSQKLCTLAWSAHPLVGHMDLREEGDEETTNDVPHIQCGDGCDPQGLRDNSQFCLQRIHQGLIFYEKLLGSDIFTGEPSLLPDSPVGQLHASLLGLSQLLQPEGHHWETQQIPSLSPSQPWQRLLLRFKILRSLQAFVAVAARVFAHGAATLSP
- assay-summary: SPR, IgG on Protein A
pKd: −log10 of the molar value.

binder: Antibody 182 (antibody, human IgG1, kappa, V domains shown) VH: EVQLVQSGAEVKKPGATVKISCKASGYTLSDYYLHWVRQAPEKGLEWMGWIDPENGDTEHAPKFQGRVTITADTSTDTGYLELSSLRSEDTAVYYCAANKELRYFDVWGQGTLVTVSS VL: DIQMTQSPSSVSASVGDRVTITCRASQSISINLHWYQQKPGKAPKLLIYFASQSISGVPSRFSGSGSGTDFSLTINSLQTEDFATYYCQQSNSFPLTFGGGTKVEIKR
pKd: 10.61
--
binder: Antibody 194 (antibody, human IgG1, kappa, V domains shown) VH: QVQLVQSGAEVKKPGASVKVSCKASGYTLTDYYLHWVRQAPGQGLEWMGWIDPENGDTESAPKFQGRVTMTTDTSTSTAYMELRSLRSDDTAVYYCAANKELRYFDVWGQGTMVTVSS VL: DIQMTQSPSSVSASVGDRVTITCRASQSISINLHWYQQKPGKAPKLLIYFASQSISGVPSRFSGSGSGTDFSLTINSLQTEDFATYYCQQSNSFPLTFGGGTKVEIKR
pKd: 10.39
--
binder: Antibody 195 (antibody, human IgG1, kappa, V domains shown) VH: QVQLVQSGAEVKKPGASVKVSCKASGYTFTDYYLHWVRQAPGQGLEWMGWIDPENGDTEHAPKFQGRVTMTTDTSTSTAYMELRSLRSDDTAVYYCAANKELRYFDVWGQGTMVTVSS VL: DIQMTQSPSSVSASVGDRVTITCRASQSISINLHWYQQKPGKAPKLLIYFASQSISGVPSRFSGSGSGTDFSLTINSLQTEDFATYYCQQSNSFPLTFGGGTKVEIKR
pKd: 10.30
